B1: SCARA5 (parent)
chain: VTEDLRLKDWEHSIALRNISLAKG

variants of: B1; test: protein stability index of a GFP-peptide fusion (GPS, HEK-293T) (PSI 1-6); higher = more stable; conditions: c terminus: a fixed tail appended;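 also: lentivirally expressed fusions sorted by FACS into six bins by GFP to DsRed ratio, PSI derived from sequencing read proportions per bin multiplied by bin number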
Measured quantity: protein stability index

Sample answers from the record:
A22F 3.06
D9V 3.01
E3K 3
G24N 3.06
D9A 2.94

## Task Which protein stability index value belongs to `N18Q` ?
## Result 2.93

## Task Which protein stability index value belongs to `K8Q` ?
## Result 2.91

## Task Which protein stability index value belongs to `L21W` ?
## Result 3.08

Cited source: the supplement of paper PMC10567573
